Every entry's value here was drawn from patent US20170298096A1.

Biological target: T1, His-tagged P3028 (human, also: His-tag, terminus and sequence not given here)
T1 construct: in solution at 0.5 ug/mL over the peptide cards; found with anti-His-tag antibody and rabbit anti-mouse peroxidase (rampo); also called PGE73; not shown: His-tag
T1 peptide: VFDEFKPLVEEPQNLIK
Assay: PEPSCAN chip ELISA, His-P3028 in solution;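 also: score is the raw OD at 405 nm from peroxidase colour with ABTS, imaged by CCD camera before and after staining, with wells showing air bubbles set to zero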
No end group written: not given here.

| binder | RAMPO Score, rampo score |
| --- | --- |
| KILDTFFVKLSLFTER [SEQ ID NO 467] | 331 |
| KKLDTMFVKLSLFTER [SEQ ID NO 315] | 467 |
| KKLDIFFVKLSLFTER [SEQ ID NO 501] | 293 |
| KKLDTFFVKLSMFTER [SEQ ID NO 21] | 499 |
| KKLKTFFVKLSLFTER [SEQ ID NO 512] | 274 |
| KKLDTFFVKLFLFTER [SEQ ID NO 522] | 250 |
| KKLDTFFVMLSLFTER [SEQ ID NO 509] | 283 |
| KKLDTCFVKLSLFTER [SEQ ID NO 462] | 335 |
